system: SF-268 CNS; assay: NCI tumour cell line growth inhibition, 48 h
TGI overview

The following compounds have reported results that may help.
INSERT INTO assay_data (compound, targetofassay, experimentalresult) VALUES
  ('O=C(NCc1ccccc1Cl)c1c(O)c2ccccc2[nH]c1=O', 'SF-268 CNS', '> 100 µM'),
  ('Nc1ncnc2c1nc(Cl)n2C1OC(CO)C(O)C1O (stereo not drawn)', 'SF-268 CNS', '> 100 µM'),
  ('COc1ccc(/C=N/Nc2nnc3c(n2)c2ccccc2c2nn(-c4ccccc4Cl)nc23)cc1', 'SF-268 CNS', '> 100 µM'),
  ('COc1ccc(/C=C\c2cc(OC)c(OC)c(OC)c2)c(NS(=O)(=O)c2ccc(C(C)(C)C)cc2)c1O', 'SF-268 CNS', '41.2 µM');

Incoming: Provide the documented TGI with SF-268 CNS as the system for Cc1ccc(S(=O)(=O)N2CCC(C(=O)O)(c3ccccc3)CC2)cc1
Outgoing: > 100 µM

Incoming: Further, for COc1ccc(-c2cc(-c3ccccc3)nc(NCCNc3ccnc4cc(Cl)ccc34)n2)cc1 ?
Outgoing: 3.62 µM

Incoming: Cool, now Cn1c(=O)c2c(nc(N/N=C3/SCC(=O)N3Cc3ccccc3)n2C)n(C)c1=O
Outgoing: > 100 µM

Incoming: Please answer likewise for Fc1ccc(-c2nn3c(COc4ccc(Cl)cc4)nnc3s2)cc1Oc1ccccc1
Outgoing: 54.1 µM

====

test system: OVCAR-5 ovarian; test: NCI tumour cell line growth inhibition, 48 h; in the data active = GI50 below about 0.43 µM; inactive = the rest
Outcome (select one): active, inactive

Please review the entries below; each comes with its answer.
INSERT INTO measurements (structureassmiles, grouplabel) VALUES
  ('CCN1CCN(c2nc(NNC(=O)c3ccccc3)nc(N3CCN(C(c4ccccc4)c4ccccc4)CC3)n2)CC1', 'inactive'),
  ('CCOc1ccc(Nc2nc(-c3c(C)nc4ncccn34)cs2)cc1', 'active'),
  ('O=C(C(=O)c1cc(Br)ccc1O)c1cc(Br)ccc1O', 'inactive'),
  ('Cn1ccnc1C(=O)/C=C/c1ccc(C(=O)Nc2c(F)c(F)c(F)c(F)c2F)cc1', 'inactive');

Proceed to the following item.
Incoming: Each molecule tested received a call. Report the one for C#CC#CC#CC#CC#CC#CC#CC#CC[C@@H]1OC[C@@H](COC(=O)O[C@@H](C(=O)O[C@H]2C[C@@]3(O)[C@@H](OC(=O)c4ccccc4)[C@@H]4[C@]5(OC(C)=O)CO[C@@H]5C[C@H](O)[C@@]4(C)C(=O)[C@H](OC(C)=O)C(=C2C)C3(C)C)[C@@H](NC(=O)c2ccccc2)c2ccccc2)O1 .
Outgoing: active

====

// reported TGI per item
system: NCI-H522 lung; test: NCI tumour cell line growth inhibition, 48 h
Where a SMILES comes first, the peptide text is derived from it. The star is where a group is joined. Cbz = O=C(OCc1ccccc1)*; Boc = CC(C)(C)OC(=O)*; OSu = O=C1CCC(=O)N1O*; Bn = c1ccc(C*)cc1
Just the number please, in µM, no unit attached.

Study these solved cases before continuing.
INSERT INTO measurements (compound, targetofassay, scaleunit, experimentalresult) VALUES
  ('COc1ccc(/C(C)=C(\c2ccc(Cl)cc2)c2ccc(OCCN3CCCCCC3)cc2)cc1F', 'NCI-H522 lung', 'µM', 9.71),
  ('CC1(C)CC[C@]2(C(=O)O)CC[C@]3(C)C(=CC[C@@H]4[C@@]5(C)C/C(=C/c6ccco6)C(=O)C(C)(C)[C@@H]5CC[C@]43C)[C@@H]2C1', 'NCI-H522 lung', 'µM', 24.3),
  ('COc1cc(/C=C2\C(=O)N(C)c3ccccc32)cc(OC)c1OC', 'NCI-H522 lung', 'µM', 37.8),
  ('NC(N)=N/N=C(/c1ccccc1)c1ccccc1F', 'NCI-H522 lung', 'µM', 14.7),
  ('O=S(=O)(O)c1cc(O)c(N=Nc2ccc3ccccc3c2O)c2ccccc12', 'NCI-H522 lung', 'µM', 40.2);

Incoming: Fill in: TGI of COc1ccc(/C=N/NC(=S)Nc2cc(C)ccc2OC)cc1 is ___
Outgoing: 55.9

Incoming: Another compound to check: CC(C)(C)OC(=O)NC(Cc1ccc(OCc2ccccc2)cc1)C(=O)NC(CCCCNC(=O)OCc1ccccc1)C(=O)NC(CCCCNC(=O)OCc1ccccc1)C(=O)ON1C(=O)CCC1=O (stereo not given) (Boc-Tyr(Bn)-Lys(Cbz)-Lys(Cbz)-OSu; configuration not given here)
Outgoing: 39.7

Incoming: Consider next the compound O=C1/C(=C/c2ccc(Cl)cc2)Oc2ccccc21 in the same way.
Outgoing: 34.5

Incoming: Now the same for N#CC(NC(=O)CCl)=C(Cl)Cl
Outgoing: 1.83

Incoming: One more compound: O=C(Nc1ccc(C(F)(F)F)cc1[N+](=O)[O-])c1cccnc1
Outgoing: 36.1

Incoming: Now consider O=C(OC[C@@H]1CO1)c1cccc2c(=O)c3ccccc3[nH]c12 and answer again.
Outgoing: 2.2

Incoming: Next entry: O=C1C=C/C(=C/[C@H]2SSC=C[C@]23C=CC(=O)C3)C1
Outgoing: 27.7

====

system: SF-295 CNS; test: NCI tumour cell line growth inhibition, 48 h
recordedEndpoint: TGI

Below, 2 compounds whose answers are already recorded.
INSERT INTO assay_data (compound, recordedendpoint, experimentalresult) VALUES
  ('COc1cc(N(CCC#N)CCC#N)ccc1/C(N=Nc1ccc(C(=O)O)cc1)=N/NC(=O)c1cc(Br)ccc1O', 'TGI', '> 150 µg/mL'),
  ('COc1ccc(/C(C)=C(\c2ccc(Cl)cc2)c2ccc(OCCN3CCCCCC3)cc2)cc1F', 'TGI', '5.61 µM');

Incoming: If you can, please state the reported TGI value of CC1(C)CC[C@]2(C(=O)O)CC[C@]3(C)C(=CC[C@@H]4[C@@]5(C)C/C(=C/c6ccco6)C(=O)C(C)(C)[C@@H]5CC[C@]43C)[C@@H]2C1 .
Outgoing: 18.1 µM

Incoming: Field entry: N#CC(NC(=O)CCl)=C(Cl)Cl
Outgoing: 8.01 µM

Incoming: // next record COc1ccc(N=Nc2c(N)nn3c(SC)c(C#N)c(N)nc23)cc1
Outgoing: 39.5 µM

Incoming: Moving on to CCCCCCCCCCCCCCCC(=O)OCC1OC(n2cc(F)c(=O)[nH]c2=O)C(NC(=O)N(CCCl)N=O)C(O)C1O (centres undefined)
Outgoing: 6.03 µM

Incoming: Further, for C#CCOC(=O)C(=[N+]=[N-])C(=O)CC(C)C ?
Outgoing: > 10 µM

Incoming: Subsequent entry: NC(N)=NCCCC(NC(=O)c1c2ccccc2nc2ccccc12)C(=O)O (centres undefined)
Outgoing: > 100 µM

Incoming: What would you report for O=C1CCS/C(=N/S(=O)(=O)c2ccc(N3N=C4c5ccccc5CC4C3c3cccs3)cc2)N1Cc1ccccc1 (centres undefined) ?
Outgoing: 37.5 µM

====

system: HT29 colon; test: NCI tumour cell line growth inhibition, 48 h
Known TGI of a selection of compounds

See these solved cases before continuing.
INSERT INTO measurements (compound, recordedendpoint, experimentalresult) VALUES
  ('COc1ccc(C(=O)O/N=C2/CCCCC2CN(C)C)cc1 (stereo unspecified)', 'TGI', '> 100 µM'),
  ('Cc1nc(-n2nc(-c3ccccc3)cc2-c2ccccc2)sc1C(=O)/C=C/c1ccccc1', 'TGI', '> 100 µM'),
  ('COC(=O)C(=O)C(C(=O)C(=O)Nc1ccc(C)c(C)c1)c1nc2ccc([N+](=O)[O-])cc2[nH]c1=O (stereo unspecified)', 'TGI', '> 100 µM'),
  ('CC(C)=CCCC1(C)C2COC(=O)C21 (stereo unspecified)', 'TGI', '> 100 µM'),
  ('N#CC(NC(=O)CCl)=C(Cl)Cl', 'TGI', '3.44 µM');

Please examine the following record next.
Incoming: Item S=c1[nH]n2c(COc3cc(Cl)c(OCc4nnc5sc(=S)[nH]n45)cc3Cl)nnc2s1 has what recorded TGI?
Outgoing: > 100 µM

====

tested on: RXF 393 renal; test: NCI tumour cell line growth inhibition, 48 h
Overview of reported TGI across a group of molecules:
API: value field is a number in µM; no unit string.

INSERT INTO results (molecule, recordedendpoint, scaleunit, experimentalresult) VALUES
  ('COc1ccc(/C(C)=C(\c2ccc(Cl)cc2)c2ccc(OCCN3CCCCCC3)cc2)cc1F', 'TGI', 'µM', 5.17),
  ('CC[C@]1(Cc2ccc(OC)c(OC)c2)C=[N+]([O-])O[C@H](OC2CCCC2(c2ccccc2)c2ccccc2)[C@@H]1OC(=O)C(C)(C)C (some centres undefined)', 'TGI', 'µM', 3.53),
  ('Cn1ccnc1C(=O)/C=C/c1ccc(C(=O)Nc2c(F)c(F)c(F)c(F)c2F)cc1', 'TGI', 'µM', 3.22);

Incoming: Please tell me: TGI of Oc1ccc(SCc2cc(O)ccc2O)cc1 , system RXF 393 renal?
Outgoing: 25.5
